Experiment: Neurotoxicity determined at 30 minutes after the administration of compound by rotarod test.(- denotes activity at 300 mg/kg)
Type: toxicity, organism-based
Set-up: dose 300 mg/kg
Conditions: mouse, in vivo, 0.5 h
MEASURED_METRIC: Activity

[
  {
    "MOLECULE": "Cc1cccc(C)c1N1C(=O)c2ccc([N+](=O)[O-])cc2C1=O",
    "DATA_VALUE": "Activity at 300 mg/kg"
  },
  {
    "MOLECULE": "Cc1cccc(C)c1NC(=O)c1ccc(N)cc1 [AMELTOLIDE]",
    "DATA_VALUE": "Activity at 300 mg/kg"
  }
]

* * *

Assay: Apparent IC50 value by [3H]batrachotoxinin-A-20-alpha-benzoate-binding test performed in rat brain synaptosomes
Type: subcellular
MEASURED_METRIC: IC50 (nM)
Note: unit nM is implicit; provide only the numeric part.

Below, 2 compounds whose answers are already recorded.
[
  {
    "SMILES_CODE": "Cc1cccc(C)c1N1C(=O)c2ccc(Cl)cc2C1=O",
    "MEASURED_METRIC": "IC50",
    "DATA_VALUE": 47800
  },
  {
    "SMILES_CODE": "Cc1cccc(C)c1N1C(=O)c2ccc([N+](=O)[O-])cc2C1=O",
    "MEASURED_METRIC": "IC50",
    "DATA_VALUE": 184000
  }
]

Problem: Using the record for Cc1cccc(C)c1N1C(=O)c2ccccc2C1=O , report its IC50.
Solution: 161000

Problem: Using the record for Cc1cccc(C)c1N1C(=O)c2ccc(N)cc2C1=O , report its IC50.
Solution: 110

Problem: Using the record for Cc1cccc(C)c1N1C(=O)c2ccc(O)cc2C1=O , report its IC50.
Solution: 1860

Problem: Using the record for O=C1NC(=O)C(c2ccccc2)(c2ccccc2)N1 , report its IC50.
Solution: 860

Problem: Using the record for CC1(C)CC(NC(=O)c2ccc([N+](=O)[O-])cc2)CC(C)(C)N1 , report its IC50.
Solution: 25800

Problem: Using the record for Cc1cccc(C)c1NC(=O)c1ccc(O)cc1 , report its IC50.
Solution: 350

Problem: Using the record for Cc1cccc(C)c1NC(=O)c1ccc([N+](=O)[O-])cc1 , report its IC50.
Solution: 250

Ref: ChEMBL document CHEMBL1131069
